Where a name gives a salt, the structure may show the parent alone.
METRIC NAME: melting point

Please give the measured melting point for this compound: COCC[C@H]1CN(C2=Nc3ccccc3Nc3ccc(C(F)(F)F)cc32)CCN1 [Example 202]
71 to 82 °C

Please give the measured melting point for this compound: CCOCC[C@H]1CN(C2=Nc3ccc(F)cc3Nc3sc(C)cc32)CCN1C.Cl
180 to 182 °C

Please give the measured melting point for this compound: COCC[C@H]1CN(C2=Nc3ccccc3Nc3ccc(Cl)cc32)CCN1C (as salt: hydrochloride)
205 °C

----------
- SUBJECT OF TEST: Dopamine D2 receptor (Homo sapiens)
- Construct: purchased Receptor Biology (now owned by NEN) RBHD2CM
- Sequence (P14416 1-414 isoform P14416-2): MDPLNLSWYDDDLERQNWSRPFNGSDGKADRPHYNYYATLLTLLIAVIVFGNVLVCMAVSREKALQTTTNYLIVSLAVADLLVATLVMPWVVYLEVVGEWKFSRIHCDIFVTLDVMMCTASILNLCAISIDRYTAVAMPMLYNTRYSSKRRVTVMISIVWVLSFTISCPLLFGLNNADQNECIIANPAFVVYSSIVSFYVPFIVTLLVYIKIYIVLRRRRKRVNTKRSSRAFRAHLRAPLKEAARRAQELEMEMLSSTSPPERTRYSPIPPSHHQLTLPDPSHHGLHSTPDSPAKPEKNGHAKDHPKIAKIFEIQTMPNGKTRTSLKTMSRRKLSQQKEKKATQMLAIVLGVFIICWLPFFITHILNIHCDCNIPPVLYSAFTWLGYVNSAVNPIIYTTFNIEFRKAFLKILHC
- ASSAY EXPLANATION: Dopamine D2 receptor binding assay ([125I]iodospiperone)
- TEST CONTEXT: relative Ki scale of Table 5; read-out: Relative D2 Receptor Binding Affinity Ki
pKi: −log10 of the molar value. Structures can show the parent of a compound that is named as a salt.
pKi listing for selected compounds.

Examples with answers:
COMPOUND	pKi
CCCc1nc2c(s1)Nc1ccccc1N=C2N1CCN[C@@H](CCOC)C1	> 8.00
CCCc1nc2c(s1)Nc1ccccc1N=C2N1CCN(C)[C@@H](CCOC)C1 [Example 323, dihydrochloride]	7.00 to 8.00
COCC[C@H]1CN(C2=Nc3ccccc3Nc3sc(C4CCCC4)nc32)CCN1C [Example 331, dihydrochloride]	7.00 to 8.00

// map COC(C)C[C@H]1CN(C2=Nc3ccccc3Nc3sc(C)cc32)CCN1C (mixture of isomers) [Example 360, dihydrochloride] to recorded pKi (system: Dopamine D2 receptor (Homo sapiens))
6.00 to 7.00

// map COCC[C@H]1CN(C2=Nc3ccccc3Nc3cc(C)ccc32)CCN1 to recorded pKi (system: Dopamine D2 receptor (Homo sapiens))
< 6.00

// map CCc1nc2c(s1)Nc1ccccc1N=C2N1CCN[C@@H](CCOC)C1 to recorded pKi (system: Dopamine D2 receptor (Homo sapiens))
> 8.00

// map Cc1cc2c(s1)Nc1ccccc1N=C2N1CCN(C)[C@@H](CCOc2ccccc2)C1 [Example 269, dihydrochloride] to recorded pKi (system: Dopamine D2 receptor (Homo sapiens))
7.00 to 8.00

// map COCC[C@H]1CN(C2=Nc3ccccc3Nc3sc(C(F)F)nc32)CCN1C to recorded pKi (system: Dopamine D2 receptor (Homo sapiens))
> 8.00

----------
Where a name gives a salt, the structure may show the parent alone.
METRIC NAME: melting point

Examples with answers:
MOLECULE	melting point
COC[C@H]1CN(C2=Nc3ccccc3Nc3sc(C)cc32)CCN1C [Example 260]	76 to 80 °C
CCc1cc2c(s1)Nc1cc(F)ccc1N=C2N1CCN(C)[C@@H](CCOC)C1 (as salt: hydrochloride) [Example 280, dihydrochloride]	186 to 188 °C
COCC[C@H]1CN(C2=Nc3cc(Cl)ccc3Nc3sc(C)cc32)CCN1C (as salt: hydrochloride) [Example 292, dihydrochloride]	200 to 202 °C
COCC[C@H]1CN(C2=Nc3cc(F)ccc3Nc3sc(C)cc32)CCN1C.Cl	192 to 194 °C
Cc1cc2c(s1)Nc1cc(F)ccc1N=C2N1CCN(C)[C@@H](CCO)C1.Cl.Cl	230 °C

Please give the measured melting point for this molecule: COCC[C@H]1CN(C2=Nc3ccccc3Nc3ccc(C)cc32)CCN1 [Example 199]
63 °C (dec.)
